Assayed Target: EGFR L858R/C797S (Homo sapiens, UniProt P00533, C797S/L858R)
Construct: expressed in transfected cells; host or cells: BaF3 LC
Sequence (P00533 25-1210 C797S/L858R): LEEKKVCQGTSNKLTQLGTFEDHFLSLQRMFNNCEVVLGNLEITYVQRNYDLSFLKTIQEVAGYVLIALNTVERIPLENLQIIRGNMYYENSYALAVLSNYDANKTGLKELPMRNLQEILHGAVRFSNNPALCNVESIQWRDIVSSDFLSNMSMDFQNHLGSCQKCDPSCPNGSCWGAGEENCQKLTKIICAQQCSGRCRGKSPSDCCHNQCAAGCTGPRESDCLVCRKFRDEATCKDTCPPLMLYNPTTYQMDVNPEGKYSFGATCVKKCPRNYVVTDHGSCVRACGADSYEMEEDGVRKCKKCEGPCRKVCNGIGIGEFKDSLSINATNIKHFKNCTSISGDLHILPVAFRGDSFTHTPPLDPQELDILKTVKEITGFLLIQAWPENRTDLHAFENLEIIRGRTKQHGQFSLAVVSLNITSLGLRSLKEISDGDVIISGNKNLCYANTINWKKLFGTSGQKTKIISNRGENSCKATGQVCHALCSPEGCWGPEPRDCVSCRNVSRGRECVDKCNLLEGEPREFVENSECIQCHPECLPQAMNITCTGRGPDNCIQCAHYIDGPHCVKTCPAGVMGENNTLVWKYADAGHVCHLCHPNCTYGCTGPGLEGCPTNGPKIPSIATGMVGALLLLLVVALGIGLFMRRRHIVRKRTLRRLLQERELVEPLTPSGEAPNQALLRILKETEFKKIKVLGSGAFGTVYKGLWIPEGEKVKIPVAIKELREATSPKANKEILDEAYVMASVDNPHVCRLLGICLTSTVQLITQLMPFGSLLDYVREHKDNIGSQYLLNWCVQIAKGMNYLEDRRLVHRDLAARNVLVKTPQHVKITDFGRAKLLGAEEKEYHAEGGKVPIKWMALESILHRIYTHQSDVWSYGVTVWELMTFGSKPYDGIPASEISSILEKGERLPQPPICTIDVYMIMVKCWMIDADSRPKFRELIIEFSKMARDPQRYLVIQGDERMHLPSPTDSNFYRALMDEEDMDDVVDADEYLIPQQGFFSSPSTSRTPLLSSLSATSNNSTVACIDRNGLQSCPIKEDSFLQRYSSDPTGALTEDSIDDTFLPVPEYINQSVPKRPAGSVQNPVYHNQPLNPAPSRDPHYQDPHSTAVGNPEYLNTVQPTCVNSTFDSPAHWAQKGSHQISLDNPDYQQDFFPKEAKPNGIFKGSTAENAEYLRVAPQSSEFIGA
Assay Info: EGFR degradation HTRF assay in BaF3 LC cells
Assay type: cell-based
Stated Conditions: BaF3 LC (L858R/C797S), maximum percentage of inhibition (degradation); read-out: BaF3 LC Dmax (%)
Experimental: BaF3-LTC(L858R/T790M/C797S) cells and BaF3 LC(L858R/C797S) cells are treated with compounds diluted in 0.2% DMSO cell culture medium and incubate for 16 h, 37° C., 5% CO2. the final concentration of compounds in all assay is start with 10 uM, 5-fold dilution, total 8 doses were included. […] High control=Cell group with added DMSO and without compound, indicating microplate readings without EGFR degradation; […]
Recorded Endpoint: Dmax
Could you kindly put the unit after your number?

Some solved cases for reference:
CCOc1cc(N2CCC(N3CCN(C(=O)[C@@H]4CCN(c5cc(F)c([C@H]6CCC(=O)NC6=O)c(F)c5)C4)CC3)CC2)c(CC)cc1Nc1ncc(Br)c(Nc2ccc3nc(C)c(F)cc3c2P(C)(C)=O)n1 | 89.1%
CCOc1cc(N2CCC(N3CCN(CCc4cc(F)c([C@H]5CCC(=O)NC5=O)c(F)c4)CC3)CC2)c(CC)cc1Nc1ncc(Br)c(Nc2ccc3c(=O)n(C)ncc3c2P(C)(C)=O)n1 | 87.6%
CCOc1cc(N2CCC(N3CCN(CCc4c(F)ccc5c4n(C)c(=O)n5C4CCC(=O)NC4=O)CC3)CC2)c(CC)cc1Nc1ncc(Br)c(Nc2ccc3nc(CC)ccc3c2P(C)(C)=O)n1 (centres unmarked) | 88.9%
CCc1ccc2c(P(C)(C)=O)c(Nc3nc(Nc4cc(CC)c(N5CCC(N6CCN(C(=O)C7CN(c8cc(F)c([C@H]9CCC(=O)NC9=O)c(F)c8)C7)CC6)CC5)cc4OC)ncc3Br)ccc2n1 | 91.7%

# evaluate next
Tell me the measured Dmax of `CCc1cc(Nc2ncc(Br)c(Nc3ccc4c(=O)n(CC)ncc4c3P(C)(C)=O)n2)c(OC)cc1N1CCC(N2CCN(CCc3cc(F)c([C@H]4CCC(=O)NC4=O)c(F)c3)CC2)CC1` , please.
88.9%

====

Assayed Target: EGFR L858R/T790M/C797S (Homo sapiens, UniProt P00533, C797S/L858R/T790M)
Construct: expressed in transfected cells; host or cells: BaF3-LTC
Sequence (P00533 25-1210 T790M/C797S/L858R): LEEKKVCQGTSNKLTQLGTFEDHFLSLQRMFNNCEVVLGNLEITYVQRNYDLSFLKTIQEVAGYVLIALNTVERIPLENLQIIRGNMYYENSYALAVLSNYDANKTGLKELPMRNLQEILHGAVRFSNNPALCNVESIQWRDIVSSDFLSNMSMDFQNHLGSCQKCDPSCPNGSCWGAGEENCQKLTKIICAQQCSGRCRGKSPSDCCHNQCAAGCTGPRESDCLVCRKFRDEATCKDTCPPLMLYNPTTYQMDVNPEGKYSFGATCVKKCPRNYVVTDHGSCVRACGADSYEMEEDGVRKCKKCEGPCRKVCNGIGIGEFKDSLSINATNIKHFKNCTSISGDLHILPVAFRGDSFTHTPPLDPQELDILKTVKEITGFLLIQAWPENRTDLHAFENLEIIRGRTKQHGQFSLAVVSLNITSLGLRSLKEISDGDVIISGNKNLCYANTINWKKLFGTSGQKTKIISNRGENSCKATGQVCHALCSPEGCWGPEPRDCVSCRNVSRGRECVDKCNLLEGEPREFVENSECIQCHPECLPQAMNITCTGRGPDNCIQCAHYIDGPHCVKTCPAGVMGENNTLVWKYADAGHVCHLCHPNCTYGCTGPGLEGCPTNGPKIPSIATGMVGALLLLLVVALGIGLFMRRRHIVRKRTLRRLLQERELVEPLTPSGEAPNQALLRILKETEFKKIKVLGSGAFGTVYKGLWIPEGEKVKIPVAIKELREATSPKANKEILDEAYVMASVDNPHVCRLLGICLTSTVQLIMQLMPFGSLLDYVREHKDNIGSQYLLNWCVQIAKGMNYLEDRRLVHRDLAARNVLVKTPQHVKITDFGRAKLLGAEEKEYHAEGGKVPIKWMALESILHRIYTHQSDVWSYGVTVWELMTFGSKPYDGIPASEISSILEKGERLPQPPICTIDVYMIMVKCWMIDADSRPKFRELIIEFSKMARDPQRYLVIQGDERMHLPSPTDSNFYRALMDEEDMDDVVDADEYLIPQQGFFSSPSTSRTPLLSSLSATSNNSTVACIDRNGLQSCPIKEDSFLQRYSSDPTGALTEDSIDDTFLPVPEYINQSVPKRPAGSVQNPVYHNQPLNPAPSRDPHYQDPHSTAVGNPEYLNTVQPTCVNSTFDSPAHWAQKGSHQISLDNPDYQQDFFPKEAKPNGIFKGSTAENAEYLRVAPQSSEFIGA
Assay Info: EGFR degradation HTRF assay in BaF3-LTC cells
Assay type: cell-based
Stated Conditions: BaF3-LTC (L858R/T790M/C797S), maximum percentage of inhibition (degradation); read-out: BaF3-LTC Dmax (%)
Recorded Endpoint: Dmax (%)
Output spec: scalar in %, unitless text.

Some solved cases for reference:
CCOc1cc(N2CCC(N3CCN(CC4CN(c5cc(F)c([C@H]6CCC(=O)NC6=O)c(F)c5)C4)CC3)CC2)c(CC)cc1Nc1ncc(Br)c(Nc2ccc3nc(CC)ccc3c2P(C)(C)=O)n1 [Example 541] | 95.6
CCOc1cc(N2CCC(N3CCN(CCc4cccc5c4n(CC)c(=O)n5C4CCC(=O)NC4=O)CC3)CC2)c(CC)cc1Nc1ncc(Br)c(Nc2ccc3nc(CC)ccc3c2P(C)(C)=O)n1 (stereo not shown) [Example 504] | 89
CCOc1cc(N2CCC(N3CCN(CCc4c(F)cc(F)c5c4oc(=O)n5C4CCC(=O)NC4=O)CC3)CC2)c(CC)cc1Nc1ncc(Br)c(Nc2ccc3nc(CC)ccc3c2P(C)(C)=O)n1 (stereo not shown) [Example 731] | 80.3

Tell me the measured Dmax of CCc1cc(Nc2ncc(Br)c(Nc3ccc4nc(C)ncc4c3P(C)(C)=O)n2)c(OC)cc1N1CCC(N2CCN(CCc3cc(F)c([C@H]4CCC(=O)NC4=O)c(F)c3)CC2)CC1 [Example 739] , please.
95.7
